- method: Oral bioavailability in CD1 mouse at 10 mg/kg
- Format: ADME, organism-based
- applied conditions: in vivo

{"entry smiles": "COc1ccccc1N1CCN(CCCCCN2Cc3c(Cl)nc4ccccc4c3C2=O)CC1", "unit": "%", "bioavailability": 45}
{"entry smiles": "COc1ccccc1N1CCN(CCCCCN2Cc3ccc4ccccc4c3C2=O)CC1", "unit": "%", "bioavailability": 20}

###

- system: 5-hydroxytryptamine receptor 1A (Rattus norvegicus, UniProt P19327)
- Sequence (P19327 whole entry): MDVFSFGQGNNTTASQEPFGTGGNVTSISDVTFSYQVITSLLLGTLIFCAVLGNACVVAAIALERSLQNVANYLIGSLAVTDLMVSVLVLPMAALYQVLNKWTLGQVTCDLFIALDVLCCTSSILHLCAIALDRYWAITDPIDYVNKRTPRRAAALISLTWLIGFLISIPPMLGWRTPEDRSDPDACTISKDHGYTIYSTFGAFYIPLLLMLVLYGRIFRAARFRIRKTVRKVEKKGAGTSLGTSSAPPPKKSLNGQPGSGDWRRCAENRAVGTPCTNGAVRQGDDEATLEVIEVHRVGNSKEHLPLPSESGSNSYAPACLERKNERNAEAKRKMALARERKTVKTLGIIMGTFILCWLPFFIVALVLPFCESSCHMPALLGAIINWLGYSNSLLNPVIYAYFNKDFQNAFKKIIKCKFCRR
- method: Displacement of [3H]8-OH-DPAT from 5-HT1A receptor in Wistar rat cerebral hippocampus membrane after 10 mins
- Type: tissue-based
- applied conditions: read-out: Ki(app)
Entries whose Ki is below 30 nM take met; entries at or above 30 nM take not met.

{"entry smiles": "COc1ccccc1N1CCN(CCCCCN2Cc3c(Cl)nc4ccccc4c3C2=O)CC1", "class assignment": "met"}
{"entry smiles": "O=C1c2c(c(Cl)nc3ccccc23)CN1CCCCN1CCN(c2cccc(Cl)c2Cl)CC1", "class assignment": "not met"}
{"entry smiles": "COc1ccccc1N1CCN(CCCN2Cc3ccc4ccccc4c3C2=O)CC1", "class assignment": "not met"}
{"entry smiles": "COc1ccccc1N1CCN(CCCCN2Cc3c(Cl)nc4ccccc4c3C2=O)CC1", "class assignment": "met"}
{"entry smiles": "O=C1c2cc3ccccc3nc2CN1CCCCCN1CCN(c2cccc(Cl)c2Cl)CC1", "class assignment": "not met"}
{"entry smiles": "O=C1c2c(ccc3ccccc23)CN1CCCCN1CCN(c2cccc(Cl)c2Cl)CC1", "class assignment": "not met"}

The reported measurements were obtained from ChEMBL document CHEMBL2390830.
